Recorded IC50 values for a group of compounds are listed next.
- MEASURED_ON: recombinant human cGAS (aa147-522) (Homo sapiens, UniProt Q8N884)
- Construct: recombinant human cGAS (aa147-522); His6-SUMO (cleaved yes); made in house; host or cells: E. coli BL21/pLys
- Sequence (Q8N884 147-522): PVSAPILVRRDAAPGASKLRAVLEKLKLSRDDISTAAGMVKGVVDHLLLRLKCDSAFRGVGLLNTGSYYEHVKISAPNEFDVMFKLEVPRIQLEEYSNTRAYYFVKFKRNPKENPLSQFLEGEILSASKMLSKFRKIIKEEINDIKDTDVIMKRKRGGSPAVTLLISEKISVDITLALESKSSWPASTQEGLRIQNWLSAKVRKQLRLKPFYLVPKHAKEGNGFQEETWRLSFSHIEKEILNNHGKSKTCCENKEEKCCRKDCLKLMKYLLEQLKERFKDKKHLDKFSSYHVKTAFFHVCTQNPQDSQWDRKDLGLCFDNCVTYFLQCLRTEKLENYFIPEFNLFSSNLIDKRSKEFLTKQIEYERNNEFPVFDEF
- PROTOCOL_DETAILS: In vitro inhibition assay of cGAS activity (ATP consumption, KinaseGlo Max)
- Format: biochemical
- CONDITION_CONTEXT: Table 3, read-out: cGAS Inhibition Results IC50

// solved cases for IC50 follow
COMPOUND | IC50
O=C(O)C1CCN(C(=O)C[C@@H]2CCCN2c2cc(-n3ccnc3)c3ccc(Cl)c(Cl)c3n2)CC1 [I-529] | < 2000 nM
COC(=O)[C@@H]1c2ccccc2CN1c1cc(-n2ccnc2)c2ccc(Cl)c(Cl)c2n1 [I-588] | < 2000 nM
O=C(O)CCO[C@H]1CCN(c2cc(-n3ccnc3)c3ccc(Cl)c(Cl)c3n2)C1 [I-771] | 2000 to 30000 nM
COC(=O)[C@@H]1[C@@H](OC)CCN1c1cc(-n2ccnc2)c2ccc(Cl)c(Cl)c2n1 [I-646] | 2000 to 30000 nM

Consider now this further compound.
Inquiry: Recorded IC50 of CN(CCCCCC(=O)O)c1cc(-n2ccnc2)c2ccc(Cl)c(Cl)c2n1 [I-691] , please.
Reply text: < 2000 nM

From: patent US11873291B2
